Target Of Assay: Sphingosine kinase 1 (Homo sapiens) (UniProt Q9NYA1);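 note: mean percent inhibition of SPHK1 activity, measured within the GSK PKIS screening panel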
Sequence (Q9NYA1 whole entry): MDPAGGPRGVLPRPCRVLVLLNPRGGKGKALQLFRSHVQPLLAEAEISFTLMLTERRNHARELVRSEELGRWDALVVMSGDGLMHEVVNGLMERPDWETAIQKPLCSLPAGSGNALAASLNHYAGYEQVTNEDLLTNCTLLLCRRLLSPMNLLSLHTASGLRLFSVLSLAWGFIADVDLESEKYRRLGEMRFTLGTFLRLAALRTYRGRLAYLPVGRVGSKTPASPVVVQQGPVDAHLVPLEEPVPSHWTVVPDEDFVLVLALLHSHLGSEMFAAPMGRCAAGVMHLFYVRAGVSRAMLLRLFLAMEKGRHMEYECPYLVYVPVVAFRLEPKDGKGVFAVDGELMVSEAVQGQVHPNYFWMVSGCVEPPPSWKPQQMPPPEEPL
Condition Description: at 0.1 µM
Endpoint Label: inhibition
Please state the value followed by its unit.

{"Structure As Smiles": "COc1ccc2c(-c3ccnc(Nc4cccc(OC(F)(F)F)c4)n3)cnn2n1", "Target Of Assay": "Sphingosine kinase 1 (Homo sapiens) (UniProt Q9NYA1)", "inhibition": "0%"}
{"Structure As Smiles": "NS(=O)(=O)c1ccc(Nc2ncc(-c3ccccc3)o2)cc1", "Target Of Assay": "Sphingosine kinase 1 (Homo sapiens) (UniProt Q9NYA1)", "inhibition": "0.6%"}
{"Structure As Smiles": "CN1CCC(n2cnc(-c3ccc(F)cc3)c2-c2ccnc(N)n2)CC1", "Target Of Assay": "Sphingosine kinase 1 (Homo sapiens) (UniProt Q9NYA1)", "inhibition": "-2.21%"}
{"Structure As Smiles": "CN(C)CCOc1ccc(-c2nc(-c3ccncc3)c(-c3ccc4c(c3)CC/C4=N\\O)[nH]2)cc1", "Target Of Assay": "Sphingosine kinase 1 (Homo sapiens) (UniProt Q9NYA1)", "inhibition": "11.7%"}
{"Structure As Smiles": "Cc1cccc(Nc2ncc(-c3ccccc3)o2)c1", "Target Of Assay": "Sphingosine kinase 1 (Homo sapiens) (UniProt Q9NYA1)", "inhibition": "1%"}

Noted for `COc1ccc(-c2cc(-c3c[nH]nc3-c3ccccn3)ccn2)cc1` : its inhibition reads 1.57%

Noted for `CN1CCC(n2cnc(-c3ccc(F)cc3)c2-c2ccnc(Nc3ccccc3)n2)CC1` : its inhibition reads 1.77%

Noted for `c1ccc(COc2ccc(Nc3ncnc4ccc(-c5ccco5)cc34)cc2)cc1` : its inhibition reads 1.84%

Noted for `CNC(=O)c1cc(-c2ccc(F)cc2)cc(-c2ccc(S(=O)(=O)N3CCCC3)cc2)c1N` : its inhibition reads -0.85%

Noted for `[O-][S+]1CCN(Cc2ccc(-c3ccc4ncnc(Nc5ccc(OCc6cccc(F)c6)c(Cl)c5)c4c3)o2)CC1` : its inhibition reads -0.15%

====

Catalogue of molecules with associated inhibition
Target Of Assay: Macrophage-stimulating protein receptor (Homo sapiens);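 note: reported values are the mean percent inhibition of RON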
Condition Description: at 0.1 µM
Numbers only here, please. The scale is %.

Please review the following examples before continuing.
{"Structure As Smiles": "c1ccc(-c2nc3n(c2-c2ccc4c(c2)OCO4)CCC3)nc1", "inhibition [%]": 0.69}
{"Structure As Smiles": "COc1cccc(-n2ncc3c(N/N=C/c4ccc(F)cc4)ncnc32)c1", "inhibition [%]": 3.4}
{"Structure As Smiles": "COc1cc(Nc2nccc(Nc3ccc4c(C)n[nH]c4c3)n2)cc(OC)c1OC", "inhibition [%]": 6.16}
{"Structure As Smiles": "CCNC(=O)O[C@H]1CN[C@H](C#Cc2cc3ncnc(Nc4ccc(OCc5cccc(F)c5)c(Cl)c4)c3s2)C1", "inhibition [%]": 3.96}

With Macrophage-stimulating protein receptor (Homo sapiens) as the test system, `O=C(Nc1n[nH]c2cc(-c3ccc(F)cc3)ccc12)C1CC1` showed inhibition of 3.73

With Macrophage-stimulating protein receptor (Homo sapiens) as the test system, `O=C(O[C@H]1CN[C@H](C#Cc2cc3ncnc(Nc4ccc(Cc5ccccc5)cc4)c3s2)C1)N1CCOCC1` showed inhibition of 2.34

With Macrophage-stimulating protein receptor (Homo sapiens) as the test system, `CN1CCC(n2cnc(-c3ccc(F)cc3)c2-c2ccnc(Nc3ccccc3)n2)CC1` showed inhibition of 2.65

With Macrophage-stimulating protein receptor (Homo sapiens) as the test system, `NS(=O)(=O)c1ccc(N/N=C2\C(=O)Nc3ccc4ncccc4c32)cc1` showed inhibition of 2.25

With Macrophage-stimulating protein receptor (Homo sapiens) as the test system, `CCCN(CCS(C)(=O)=O)Cc1ccc(-c2ccc3ncnc(Nc4ccc(OCc5cccc(F)c5)c(Cl)c4)c3c2)o1` showed inhibition of 2.96
